method_summary: Stability at pH 7.4 and 37 degree Celsius (after 18 h)
Type: physicochemical
applied_conditions: buffer
# Lookup of reported remaining at 18 h keyed by entry
Please report the result as a number followed by the unit.

// remaining at 18 h value for COc1ccc(CCNCC(O)COC(=O)c2ccccc2F)cc1OC (stereo not given) : 35%

// remaining at 18 h value for COc1ccc(CCNCC(O)COC(=O)c2ccccc2C)cc1OC (stereo not given) : 94%

// remaining at 18 h value for CC(C)(C)NCC(O)COC(=O)c1ccccc1F (stereo not given) : 98%

###

method_summary: Time in which 1/2 of the initial amount disappeared in canine liver
Assay type: ADME, […], Canis lupus familiaris
applied_conditions: dog
assay_endpoint: half-life (min)
Supply the numeric figure in min, leaving out any unit text.

// half-life value for CC(C)(C)NCC(O)COC(=O)c1ccc(C=O)cc1 (stereo unspecified) : 1

###

method_summary: Time in which 1/2 of the initial amount disappeared in canine liver(106)
Type: ADME, […], Canis lupus familiaris
applied_conditions: dog
assay_endpoint: half-life (min)
Supply the numeric figure in min, leaving out any unit text.

// half-life value for CC(C)NCC(O)COC(=O)c1ccccc1F (stereo unspecified) : 4

###

# Lookup of reported pA2 keyed by entry
system_under_test: Adrenergic receptor beta (Homo sapiens, UniProt P08588+P07550+P13945)
method_summary: In Vitro inhibition of the beta adrenergic receptor in guinea pig atria
Assay type: tissue-based, Cavia porcellus
applied_conditions: target entry is the homologue from another species
Form rule: numeric answer, no unit written next to it.

Reference set (9 entries):
>>> test_value("Cc1ccccc1OCC(O)CNC(C)C (stereo not drawn)")
8.6
>>> test_value("CCOC(=O)NCC(C)(C)NCC(O)COC(=O)c1ccccc1F (stereo not drawn)")
7.1
>>> test_value("COCCOC(=O)NCC(C)(C)NCC(O)COC(=O)c1ccccc1F (stereo not drawn)")
7.7
>>> test_value("Cc1ccccc1C(=O)OCC(O)CNC(C)C (stereo not drawn)")
6.5
>>> test_value("CC(C)NCC(O)COc1ccccc1 (stereo not drawn)")
8
>>> test_value("CC(C)C(=O)NCCNCC(O)COC(=O)c1ccccc1F (stereo not drawn)")
6.1
>>> test_value("CC(C)(C)NCC(O)COC(=O)c1ccccc1F (stereo not drawn)")
6.8
>>> test_value("CC(C)(C)NCC(O)COC(=O)c1ccc(OCc2ccccc2)cc1 (stereo not drawn)")
6.2
>>> test_value("CC(C)(C)NCC(O)COC(=O)c1cccc2ccccc12 (stereo not drawn)")
6.8

// pA2 value for CC(C)NCC(O)COC(=O)c1ccc(O)cc1 (stereo not drawn) : 6.8

###

method_summary: Time in which 1/2 of the initial amount disappeared in human blood.
Assay type: ADME, organism-based
assay_endpoint: half-life (min)
Supply the numeric figure in min, leaving out any unit text.

Reference set (3 entries):
>>> test_value("CC(C)(C)NCC(O)COC(=O)c1ccc(O)cc1 (configuration not stated)")
56
>>> test_value("CC(C)(C)NCC(O)COC(=O)Cc1ccccc1 (configuration not stated)")
6.3
>>> test_value("CC(C)(C)NCC(O)COC(=O)c1ccccc1F (configuration not stated)")
1.6

// half-life value for CC(C)(C)NCC(O)COC(=O)c1ccccc1 (configuration not stated) : 5.3

// half-life value for COc1ccc(C(=O)OCC(O)CNC(C)C)cc1 (configuration not stated) : 55
